These measurements were taken from PubChem BioAssay (EPA / NIEHS).

system under test: Cellular tumor antigen p53 (Homo sapiens) (UniProt P04637)
Sequence (P04637 whole entry, looked up): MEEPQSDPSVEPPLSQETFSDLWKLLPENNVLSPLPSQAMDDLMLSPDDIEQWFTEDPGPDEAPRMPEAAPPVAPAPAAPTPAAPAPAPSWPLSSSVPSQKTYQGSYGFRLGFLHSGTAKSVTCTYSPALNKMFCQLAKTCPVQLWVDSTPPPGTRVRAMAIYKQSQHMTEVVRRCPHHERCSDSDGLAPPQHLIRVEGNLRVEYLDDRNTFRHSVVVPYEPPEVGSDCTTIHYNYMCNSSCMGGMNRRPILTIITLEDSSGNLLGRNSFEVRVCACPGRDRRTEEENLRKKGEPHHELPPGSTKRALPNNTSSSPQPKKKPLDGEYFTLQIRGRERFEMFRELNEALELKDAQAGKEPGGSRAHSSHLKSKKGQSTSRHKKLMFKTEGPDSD
experimental protocol: TOX21_p53_BLA_p5_ratio: Tox21 HCT-116 p53 Agonism Beta-lactamase Assay, Ratio, Phase 5 (AID 2283599)
Records with an inconclusive call do not appear. Activity calls are given as the source filed them. How the source made its calls: active means hit-call score of the fitted dose curve at least 0.9, where 1 is the maximum; inconclusive means response in the unintended direction; inactive means score below 0.9.
Assign a class; possible classes are class 1 for active, class 0 for inactive

[
  {
    "compound": "CCC1COC(Cn2cncn2)(c2ccc(Cl)cc2Cl)O1 (centres undefined)",
    "answer label": "class 0"
  },
  {
    "compound": "BrC(Br)Br",
    "answer label": "class 0"
  },
  {
    "compound": "N=C(N)[Se]",
    "answer label": "class 0"
  },
  {
    "compound": "CC[C@H](N)c1ccccc1",
    "answer label": "class 0"
  },
  {
    "compound": "CC(C)[N+](C)(CCC(C(N)=O)(c1ccccc1)c1ccccc1)C(C)C",
    "answer label": "class 0"
  },
  {
    "compound": "CCN(CC)Cc1nccn1-c1ccc([N+](=O)[O-])cc1C(=O)c1ccccc1Cl",
    "answer label": "class 0"
  }
]

Task: Which outcome was assigned to `ClC(Cl)=C(Cl)Cl` in this test?
Result: class 0

Task: Which outcome was assigned to `CCCCCCCCCCOC(=O)c1ccccc1C(=O)OCCCCCCCCCC` in this test?
Result: class 0

Task: Which outcome was assigned to `CC=Cc1ccc2c(c1)OCO2` in this test?
Result: class 0

Task: Which outcome was assigned to `Cc1nnc2n1-c1ccc(Cl)cc1C(c1ccccc1)=NC2` in this test?
Result: class 0

Task: Which outcome was assigned to `CNNC` in this test?
Result: class 0
